- Test system: Glycogen synthase kinase-3 alpha (Homo sapiens), P49840 [UNDEFINED MUTATION]
- Sequence (P49840 whole entry, looked up, stated change not applied): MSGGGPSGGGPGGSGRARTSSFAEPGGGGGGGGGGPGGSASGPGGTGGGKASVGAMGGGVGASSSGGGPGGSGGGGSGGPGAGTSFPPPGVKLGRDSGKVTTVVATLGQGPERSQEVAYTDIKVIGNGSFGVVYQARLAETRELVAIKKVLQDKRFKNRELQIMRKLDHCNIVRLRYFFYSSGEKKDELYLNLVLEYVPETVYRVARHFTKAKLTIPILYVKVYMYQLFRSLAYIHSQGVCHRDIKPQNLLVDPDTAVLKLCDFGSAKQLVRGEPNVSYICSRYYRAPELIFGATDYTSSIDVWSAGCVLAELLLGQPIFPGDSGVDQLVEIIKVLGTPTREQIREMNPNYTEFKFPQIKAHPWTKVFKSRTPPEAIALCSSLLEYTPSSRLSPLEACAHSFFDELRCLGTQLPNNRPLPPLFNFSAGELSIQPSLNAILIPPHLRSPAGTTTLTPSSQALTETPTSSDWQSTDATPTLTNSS
- Experiment: Inhibition of human GSK-3alpha S449A mutant (2 to end residues) at 10 uM using phospho GS2 peptide as substrate after 40 mins in presence of [gamma-33ATP] by scintillation counting method relative to control
Attribute Measured: inhibition

Param item = O=C1NC(=S)N/C1=C/c1ccc(-c2cccc(C(=O)O)c2)o1 ; retrieve measured inhibition.
97%

Here is another compound to look at.
Endpoint output: inhibition of CCN1C(=O)/C(=C\c2ccc(-c3ccc(Cl)cc3Cl)o2)NC1=S . Value?
26%

====

- System: Glycogen synthase kinase-3 alpha (Homo sapiens), P49840 [UNDEFINED MUTATION]
- Experiment: Inhibition of human GSK-3alpha S449A mutant (2 to end residues) at 10 uM using phospho GS2 peptide as substrate after 40 mins in presence of [gamma-33ATP] by scintillation counting method relative to control
Kindly return Met if reported inhibition is no lower than 70%; return Not met if it is lower.

Form field: inhibition at least 70%? Entry: CC(=O)c1cn(CCCCCCCCCCn2cc(C(C)=O)c(=O)[nH]c2=O)c(=O)[nH]c1=O
Not met

Record N=C1NC(=O)/C(=C\c2ccc(-c3cccc([N+](=O)[O-])c3)o2)S1 ; criterion: inhibition no lower than 70%. Met?
Met

# bool: inhibition of O=C1NC(=O)N(c2ccc(Br)cc2)C(=O)/C1=C\NCCc1c[nH]c2ccccc12 >= 70%
Not met

# check: inhibition of Cc1ccc(-c2ccc(/C=C3/SC(=N)NC3=O)o2)c([N+](=O)[O-])c1 is greater than or equal to 70%
Met

Next:
Quick check, inhibition >= 70%? N=C1NC(=O)/C(=C\c2ccc(-c3cccc(Cl)c3)o2)S1
Met
